Test system: BAEC (bovine aorta endothelial) normal cell line
TEST: MTT cytotoxicity assay, BAEC normal cells
Type: cell-based
TEST PARAMETERS: Bos taurus, BAEC, 24 h, 24 h with compound, IC50 ± SEM
The following compounds are shown together with reported pIC50 values.
When answering, recall that pIC50 equals minus log10 of the concentration in mol/L, and write that number alone.

The cases that follow already have their pIC50 on record.
# COMPOUND, SYSTEM NAME, MEASUREMENT LABEL, DATA VALUE
data = [
    ("Clc1ccc(Nc2nc(N3CCCCC3)nc(N3CCCCC3)n2)cc1 [2a]", "BAEC (bovine aorta endothelial) normal cell line", "pIC50", 4.31),
    ("Cc1ccc(Nc2nc(N3CCOCC3)nc(N3CCOCC3)n2)cc1 [3d]", "BAEC (bovine aorta endothelial) normal cell line", "pIC50", 6.24),
    ("CC(=O)O[C@H]1C(=O)[C@@]2(C)[C@H]([C@H](OC(=O)c3ccccc3)[C@]3(O)C[C@H](OC(=O)[C@H](O)[C@@H](NC(=O)c4ccccc4)c4ccccc4)C(C)=C1C3(C)C)[C@]1(OC(C)=O)CO[C@@H]1C[C@@H]2O [PTX, Paclitaxel, reference compound]", "BAEC (bovine aorta endothelial) normal cell line", "pIC50", 5.57),
]

Query: pIC50; subject: O=[N+]([O-])c1ccc(Nc2nc(N3CCOCC3)nc(N3CCOCC3)n2)cc1 [3e] 4.06

Query: pIC50; subject: COc1ccc(Nc2nc(N3CCOCC3)nc(N3CCOCC3)n2)cc1 [3c] 5.70

Query: pIC50; subject: O=[N+]([O-])c1ccc(Nc2nc(N3CCCCC3)nc(N3CCCCC3)n2)cc1 [2e] 3.50

Query: pIC50; subject: Fc1ccc(Nc2nc(N3CCCCC3)nc(N3CCCCC3)n2)cc1 [2b] 4.67

Origin of the recorded values: paper PMC11959361
